- studySystem: sTAAR365 Y7.43Q (Petromyzon marinus, UniProt A0A678XMK4, Y299Q)
- Sequence (A0A678XMK4 whole entry Y299Q): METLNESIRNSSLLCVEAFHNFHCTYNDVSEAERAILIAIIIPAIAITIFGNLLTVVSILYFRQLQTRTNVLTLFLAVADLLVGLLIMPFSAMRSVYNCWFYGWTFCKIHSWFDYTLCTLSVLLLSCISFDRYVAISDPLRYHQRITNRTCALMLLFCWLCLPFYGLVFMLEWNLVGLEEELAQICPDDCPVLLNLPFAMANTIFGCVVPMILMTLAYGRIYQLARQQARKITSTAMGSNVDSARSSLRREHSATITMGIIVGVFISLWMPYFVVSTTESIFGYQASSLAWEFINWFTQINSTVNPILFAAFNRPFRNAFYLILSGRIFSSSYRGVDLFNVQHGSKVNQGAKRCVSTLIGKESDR
- measurementDescription: cell-based
propertyLabel: pEC50
Keep it numeric: pEC50 is minus log10 of the concentration in mol/L.

# pEC50 lookup, item `NCCCCCN`
5.15

----------
- studySystem: WT mTAAR9 (Mus musculus)
- Construct: Rho-tag (first 20 amino acids of bovine rhodopsin) (N); expressed in transfected cells; host or cells: Hana3A (HEK293-derived)
- Sequence (Q5QD04 whole entry): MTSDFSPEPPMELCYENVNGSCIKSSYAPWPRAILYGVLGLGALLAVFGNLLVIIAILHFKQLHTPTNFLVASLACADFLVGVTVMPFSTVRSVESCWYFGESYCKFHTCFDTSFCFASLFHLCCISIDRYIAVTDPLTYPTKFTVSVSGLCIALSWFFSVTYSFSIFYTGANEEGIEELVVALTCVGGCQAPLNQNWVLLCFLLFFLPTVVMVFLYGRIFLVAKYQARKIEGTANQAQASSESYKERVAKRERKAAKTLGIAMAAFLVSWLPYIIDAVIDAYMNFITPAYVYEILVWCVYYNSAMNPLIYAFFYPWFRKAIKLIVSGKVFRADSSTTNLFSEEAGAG
- measurementDescription: CRE-luciferase reporter assay, wild-type mTAAR9 in Hana3A
- Type: cell-based
- assayContext: WT mTAAR9, Hana3A, CRE-luciferase; read-out: EC50 (mean ± S.D., n = 3)
Collected EC50 values appear next to each entry.
Numeric answer only, unit µM assumed.

[[record]]
querysmiles = "NCCCCNCCCN"
studysystem = "WT mTAAR9 (Mus musculus)"
unitabbreviation = "µM"
numericresult = 43


Lab note: need EC50 with WT mTAAR9 (Mus musculus) for entry `CCN(CC)CC` , please look it up.
251
